Below, each entry is listed with its recorded melting point.
Counter-ions that a name gives are not always drawn.

{"columns": ["MOLECULE", "melting point"],
 "data": [
  ["COc1ccc2c(c1)CCN(CCCSc1nnc(-c3ccc[nH]3)n1C)C2", "179 to 181 °C"],
  ["Cn1c(SCCCN2CCc3ccc(NS(C)(=O)=O)cc3C2)nnc1-c1ccccc1 (as salt: HCl)", "90 °C"],
  ["COc1cccc2c1CCN(CCCSc1nnc(-c3ccccc3)n1C)C2", "73 to 75 °C"],
  ["Cn1c(SCCCN2CCc3ccc(S(=O)(=O)N4CCCC(C)(C)C4)cc3C2)nnc1-c1ccccc1", "75 to 76 °C"]
]}
